assay: Single dose PK in healthy subjects (Cohorts 1, 2, S1 and S2), plasma; format: in vivo, human; conditions: human, plasma, intravenous, 14 mg; 2 hr; read-out: Plasma concentration, Q3
Measured metric: concentration at 2 h

[ask] Reported concentration at 2 h for COC(=O)N1CCC[C@H](NS(C)(=O)=O)[C@@H]1CO[C@H]1CC[C@@H](c2ccccc2)CC1 : what is it?
[reply] 35.8 ng/mL

* * *

assay: Single dose PK in healthy subjects (Cohorts 1, 2, S1 and S2), plasma; assay type: in vivo, human; details: human, plasma, iv, 240 mg, 240 mg single IV infusion, healthy subjects; read-out: Vz Mean
Measured metric: Vd (L)
Field: numeric (L). Do not append units.

[ask] If you can, please state the reported Vd value of COC(=O)N1CCC[C@H](NS(C)(=O)=O)[C@@H]1CO[C@H]1CC[C@@H](c2ccccc2)CC1 [Compound A] .
[reply] 313
